Hey, just so you know, these numbers are from patent US20220040297A1.

# ratio of amounts bound vs CE115HA000 annotations
target: T1, CD3ε homodimer protein (human, UniProt P07766 23-126, limits assumed, sulfo-tag or biotin label in some ECL assays); assay: SPR, CD3ε homodimer on chip;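 note: biacore SPR with antibody variants flowed as analyte over amine-coupled CD3ε homodimer on a CM chip, bound amount of each single-residue H chain variant over that of parent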
T1 construct: also called human CD3ε homodimer protein; CD3 (CD3ε)
T1 sequence (P07766 23-126 limits assumed): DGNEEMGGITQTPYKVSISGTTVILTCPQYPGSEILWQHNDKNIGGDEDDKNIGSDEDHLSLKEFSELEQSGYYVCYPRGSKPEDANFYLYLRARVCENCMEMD
Could you keep your reply to the number by itself?

Guide cases for ratio of amounts bound vs CE115HA000, answers given:
>  <binder>
CE115HA000 K52bS (antibody, name in Kabat numbering, V domains shown) VH: QVQLVESGGGVVQPGRSLRLSCAASGFTFSNAWMHWVRQAPGKGLEWVAQIKASSNNYATYYAESVKGRFTISRDDSKNSLYLQMNSLKTEDTAVYYCRYVHYGAYYGVDAWGQGTTVTVSS VL: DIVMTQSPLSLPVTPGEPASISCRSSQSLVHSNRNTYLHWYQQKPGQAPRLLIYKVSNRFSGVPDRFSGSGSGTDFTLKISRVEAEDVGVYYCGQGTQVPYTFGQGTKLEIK

>  <measured>
0.68

$$$$
>  <binder>
CE115HA000 S62E (antibody, name in Kabat numbering, V domains shown) VH: QVQLVESGGGVVQPGRSLRLSCAASGFTFSNAWMHWVRQAPGKGLEWVAQIKAKSNNYATYYAEEVKGRFTISRDDSKNSLYLQMNSLKTEDTAVYYCRYVHYGAYYGVDAWGQGTTVTVSS VL: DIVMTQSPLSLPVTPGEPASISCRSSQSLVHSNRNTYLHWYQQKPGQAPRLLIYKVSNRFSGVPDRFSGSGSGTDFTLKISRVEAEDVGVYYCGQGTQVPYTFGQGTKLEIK

>  <measured>
0.92

$$$$

Moving on to the next binder.
Challenge: Bench note: what ratio of amounts bound vs CE115HA000 did CE115HA000 K52bR (antibody, name in Kabat numbering, V domains shown) VH: QVQLVESGGGVVQPGRSLRLSCAASGFTFSNAWMHWVRQAPGKGLEWVAQIKARSNNYATYYAESVKGRFTISRDDSKNSLYLQMNSLKTEDTAVYYCRYVHYGAYYGVDAWGQGTTVTVSS VL: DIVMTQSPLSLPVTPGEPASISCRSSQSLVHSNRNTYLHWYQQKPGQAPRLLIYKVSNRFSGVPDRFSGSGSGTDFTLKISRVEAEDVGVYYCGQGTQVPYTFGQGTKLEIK show?
Response given: 1.11
